# system name: Glucocorticoid receptor (Homo sapiens, UniProt P04150)
# Sequence (P04150 whole entry): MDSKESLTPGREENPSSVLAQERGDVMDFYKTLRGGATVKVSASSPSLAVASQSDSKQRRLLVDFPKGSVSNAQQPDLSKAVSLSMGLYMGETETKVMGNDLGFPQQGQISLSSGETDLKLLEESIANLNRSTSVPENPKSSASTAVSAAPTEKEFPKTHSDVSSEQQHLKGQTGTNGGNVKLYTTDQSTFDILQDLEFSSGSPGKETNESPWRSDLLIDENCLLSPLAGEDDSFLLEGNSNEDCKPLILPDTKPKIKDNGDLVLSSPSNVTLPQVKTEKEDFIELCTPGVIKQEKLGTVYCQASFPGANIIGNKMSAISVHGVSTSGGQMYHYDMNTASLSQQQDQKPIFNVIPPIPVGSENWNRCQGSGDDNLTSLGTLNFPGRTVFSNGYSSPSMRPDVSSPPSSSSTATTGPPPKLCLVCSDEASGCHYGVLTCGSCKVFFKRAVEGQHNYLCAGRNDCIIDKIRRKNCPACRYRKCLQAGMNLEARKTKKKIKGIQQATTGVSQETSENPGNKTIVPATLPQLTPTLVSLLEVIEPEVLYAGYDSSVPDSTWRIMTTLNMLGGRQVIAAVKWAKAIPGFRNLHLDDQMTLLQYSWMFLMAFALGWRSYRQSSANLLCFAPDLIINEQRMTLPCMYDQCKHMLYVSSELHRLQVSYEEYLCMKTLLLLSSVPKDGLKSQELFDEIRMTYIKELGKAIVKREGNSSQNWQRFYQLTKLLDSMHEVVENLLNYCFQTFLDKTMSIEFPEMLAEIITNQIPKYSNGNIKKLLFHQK
# experimental protocol: Antagonist activity at glucocorticoid receptor LBD expressed in human HUH7 cells coexpressing GAL4 by luciferase reporter gene assay

{"compound": "COC(=O)C1=C(Cn2cccn2)NC(C)=C(C#N)C1c1ccc(F)cc1Cl (stereo not drawn)", "IC50": "3.3 µM"}
{"compound": "COC(=O)C1=C(Cn2cncn2)NC(C)=C(C#N)C1c1ccc(F)cc1Cl (stereo not drawn)", "IC50": "2.9 µM"}
{"compound": "COC(=O)C1=C(C)NC(C)=C(C#N)C1c1ccc(F)cc1Cl (stereo not drawn)", "IC50": "5.1 µM"}

====

# experimental protocol: Solubility of the compound
# Assay type: physicochemical

{"molecule": "COC(=O)C1=C(Cn2cncn2)NC(C)=C(C#N)C1c1ccc(F)cc1Cl (stereo not drawn)", "solubility": "> 5 µM"}
{"molecule": "CCCCC1=C(C(=O)OC)C(c2ccccc2Cl)C(C#N)=C(C)N1 (stereo not drawn)", "solubility": "< 5 µM"}
{"molecule": "COC(=O)C1=C(Cn2cccn2)NC(C)=C(C#N)C1c1ccc(F)cc1Cl (stereo not drawn)", "solubility": "> 5 µM"}

====

# IC50 per entry
# system name: Progesterone receptor (Homo sapiens)
# Sequence (P06401 whole entry, the tested form may be a part): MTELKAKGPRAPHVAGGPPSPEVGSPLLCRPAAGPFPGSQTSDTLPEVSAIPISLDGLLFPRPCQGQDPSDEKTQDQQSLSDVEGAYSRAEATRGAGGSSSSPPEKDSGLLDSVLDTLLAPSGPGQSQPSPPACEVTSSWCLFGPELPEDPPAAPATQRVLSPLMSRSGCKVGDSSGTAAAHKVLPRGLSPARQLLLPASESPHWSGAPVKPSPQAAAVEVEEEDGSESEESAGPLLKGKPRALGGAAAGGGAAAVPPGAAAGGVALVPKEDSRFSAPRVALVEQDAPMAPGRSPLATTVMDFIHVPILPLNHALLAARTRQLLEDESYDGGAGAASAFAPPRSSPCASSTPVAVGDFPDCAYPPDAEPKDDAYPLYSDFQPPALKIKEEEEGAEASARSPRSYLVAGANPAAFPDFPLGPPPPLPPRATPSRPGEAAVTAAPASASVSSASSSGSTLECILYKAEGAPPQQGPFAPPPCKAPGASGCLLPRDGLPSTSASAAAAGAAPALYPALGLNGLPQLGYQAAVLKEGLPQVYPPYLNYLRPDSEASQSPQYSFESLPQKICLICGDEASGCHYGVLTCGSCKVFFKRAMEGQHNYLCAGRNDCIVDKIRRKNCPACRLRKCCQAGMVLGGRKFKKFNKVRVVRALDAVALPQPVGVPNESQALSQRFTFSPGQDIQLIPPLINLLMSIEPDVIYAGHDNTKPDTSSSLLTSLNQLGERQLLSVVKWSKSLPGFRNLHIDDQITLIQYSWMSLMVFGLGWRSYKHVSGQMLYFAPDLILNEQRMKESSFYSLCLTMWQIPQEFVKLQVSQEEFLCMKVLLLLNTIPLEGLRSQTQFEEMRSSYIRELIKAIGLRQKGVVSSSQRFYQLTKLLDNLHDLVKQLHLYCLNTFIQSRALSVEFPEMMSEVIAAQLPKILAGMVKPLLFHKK
# experimental protocol: Antagonist activity at progesterone receptor LBD expressed in human HUH7 cells coexpressing GAL4 by luciferase reporter gene assay

{"compound": "COC(=O)C1=C(Cn2cnnn2)NC(C)=C(C#N)C1c1ccc(F)cc1Cl (stereo not drawn)", "IC50": "> 10 µM"}
{"compound": "CCCC1=C(C(=O)OC)C(c2ccc(F)cc2Cl)C(C#N)=C(C)N1 (stereo not drawn)", "IC50": "> 10 µM"}
{"compound": "COC(=O)C1=C(Cn2ccnc2)NC(C)=C(C#N)C1c1ccc(F)cc1Cl (stereo not drawn)", "IC50": "> 10 µM"}
